Test system: MCF7
Assay: Cytotoxicity against human MCF7 cells assessed as growth inhibition after 72 hrs by MTT assay
Format: functional, cell-based
Conditions: MCF7, 72 h
pIC50: −log10 of the molar value.
Below is a list of entries, each paired with its recorded pIC50 value.
Observable: pIC50

INSERT INTO measurements (compound_structure_string, observable, test_result) VALUES
  ('COc1cc([C@@H]2c3cc4c(cc3[C@H](OC(=O)[C@@H]3CCCN3C(=O)OC(C)(C)C)[C@H]3COC(=O)[C@H]23)OCO4)cc(OC)c1OC', 'pIC50', 6.56),
  ('COc1cc([C@@H]2c3cc4c(cc3[C@H](OC(=O)CNC(=O)c3nc(C)c(C)nc3C)[C@H]3COC(=O)[C@H]23)OCO4)cc(OC)c1OC', 'pIC50', 7.40),
  ('CC[C@H](C)[C@H](NC(=O)OC(C)(C)C)C(=O)O[C@H]1c2cc3c(cc2[C@@H](c2cc(OC)c(OC)c(OC)c2)[C@H]2C(=O)OC[C@@H]21)OCO3', 'pIC50', 6.20);
